system: S. cerevisiae Burl-1 ts mutant growth, BacTiter-Glo, 38.5C 24 h; assay: restored growth of temperature-sensitive Burl-1 yeast – whole organism, S. cerevisiae, Burl-1 ts mutant, luminescence, counter-screen for SUMOylation pathway inhibitor project, dose response (AID 463199)
Calls of active or inactive are those of the source.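 How the source made its calls: active means AC50, the dose giving half-maximal effect, exceeds a fixed cutoff for a compound that rescues yeast growth under heat; inactive means the rest, inconclusive results apart.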
Reported AC50 values for the following molecules.

In plain terms, N#CC1=C(N)OC2=C(C(=O)CCC2)C1C1CC=CCC1 (stereo not given) has a documented AC50 of > 42 µM (inactive)

In plain terms, COc1ccc(NC(=O)COc2cc(C)cc(C)c2)cc1S(=O)(=O)N1CCCCC1 has a documented AC50 of > 42 µM (inactive)

In plain terms, Cc1ccc(N2C(=O)C3N=NN(CC(=O)N4N=C(c5cccc6ccccc56)CC4c4ccccc4)C3C2=O)cc1 (stereo not given) has a documented AC50 of > 21 µM (inactive)

In plain terms, COc1ccc(NC(=O)C2CCCN(C(=O)Nc3cccc(OC)c3)C2)cc1 (stereo not given) has a documented AC50 of > 42 µM (inactive)

In plain terms, CN(C)C(CNC(=O)CNC(=O)c1ccc(Br)cc1)c1ccccc1 (stereo not given) has a documented AC50 of > 42 µM (inactive)

* * *

test system: S. cerevisiae Burl-1 ts mutant growth, BacTiter-Glo, 38.5C 24 h; assay: restored growth of temperature-sensitive Burl-1 yeast – whole organism, S. cerevisiae, Burl-1 ts mutant, luminescence, counter-screen for SUMOylation pathway inhibitor project, dose response (AID 463199)
Activity calls are given as the source filed them.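 Rule for the calls: active = AC50, the dose giving half-maximal effect, exceeds a fixed cutoff for a compound that rescues yeast growth under heat; inactive = the rest, inconclusive results apart.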
Form entry, call: pick from class 1 for active, class 0 for inactive

The following compounds have reported results that may help.
| compound | labelClass |
| --- | --- |
| Cc1ccc(SCCNC(=O)CN2C(=O)c3ccccc3S2(=O)=O)cc1 | class 0 |
| CC(C)CCNC(=O)Cn1c(=O)oc2cc(S(=O)(=O)N3CC(C)CC(C)C3)ccc21 (centres undefined) | class 0 |
| COc1ccc2c(c1)c(CC(=O)OCC(N)=O)c(C)n2C(=O)c1ccc(Cl)cc1 | class 0 |
| O=C(c1cc(N2C(=O)C3C4CCC(C4)C3C2=O)ccc1Cl)N1CCCCCC1 (centres undefined) | class 0 |
| CC1=Nc2ccc(C)cc2N(Cc2ccccc2)C(=O)C1 | class 0 |
| O=[N+]([O-])c1cccc(-c2nc3ccc([N+](=O)[O-])cc3[nH]2)c1 | class 0 |
| CCn1ncc(Br)c1C(=O)Nc1ccc(OC(F)(F)F)cc1 | class 0 |
| C[C@@]12C(=O)Nc3ccc(Br)cc3C(=O)N1[C@H]1c3ccccc3OC[C@@H]1[C@@H]2c1ccccc1 | class 0 |
| C/C(=N/OCO/N=C(\C)c1ccccc1)c1ccccc1 | class 0 |
| Cc1ccc(/C(N)=N/OC(=O)/C=C/c2ccccc2)cc1 | class 0 |

Problem: Name the outcome recorded for O=S(=O)(CCN1CCCCC1)Oc1ccc(Cl)cc1Cl in the assay.
Result: class 0

Problem: Name the outcome recorded for CC(Oc1ccccc1)C(=O)Nc1ccccc1O (centres undefined) in the assay.
Result: class 0

Problem: Name the outcome recorded for Cc1ccc(C(=O)NCC(=O)Nc2ccc3c(c2)OCCO3)cc1 in the assay.
Result: class 1

* * *

tested on: S. cerevisiae Burl-1 ts mutant growth, BacTiter-Glo, 38.5C 24 h; assay: restored growth of temperature-sensitive Burl-1 yeast – whole organism, S. cerevisiae, Burl-1 ts mutant, luminescence, counter-screen for SUMOylation pathway inhibitor project, dose response (AID 463199)
The source made the active and inactive calls.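 How the source made its calls: active means AC50, the dose giving half-maximal effect, exceeds a fixed cutoff for a compound that rescues yeast growth under heat; inactive means the rest, inconclusive results apart.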
Form entry, call: pick from label 1 (active), label 0 (inactive)

| compound | labelClass |
| --- | --- |
| COc1cc(/C=C(\NC(=O)c2ccccc2)C(=O)Nc2nccs2)ccc1OC(C)=O | label 0 |
| CCn1c(SCC(=O)NC2CCCCC2)nnc1C(C)NC(=O)c1ccccc1F (centres undefined) | label 0 |
| O=C(Nc1ccc2[nH]c(=O)[nH]c2c1)c1c(F)c(F)c(F)c(F)c1F | label 1 |
| NC(=O)NC(=O)COC(=O)/C=C/c1cccs1 | label 0 |
| CS(=O)(=O)N(CC(=O)N1CCN(c2ccccc2F)CC1)C1CCCCC1 | label 0 |
| COCC(=O)Nc1c(C(=O)Nc2ccc3c(c2)OCO3)oc2ccccc12 | label 0 |
| CN(C)/C(CN1CCCCC1)=C1\N=C(c2ccccc2)OC1=O | label 0 |
| CCOC(=O)c1[nH]c2ccc(Br)cc2c1NC(=O)CCN1CCOCC1 | label 0 |
| O=C(Nc1nccs1)C1CCN(S(=O)(=O)c2ccc(Cl)c(C(F)(F)F)c2)CC1 | label 0 |
| CCCN(CC1CC1)C(=O)COc1ccccc1C(=O)NCc1ccccc1 | label 0 |

Problem: Name the outcome recorded for Cc1ccc(N(CC(=O)Nc2cccc(C)c2)S(=O)(=O)c2cccc3nonc23)cc1 in the assay.
Result: label 0

Problem: Name the outcome recorded for COC(C(=O)Nc1ccnn1C1CCN(Cc2cnn(C)c2)CC1)c1ccccc1 (centres undefined) in the assay.
Result: label 0

Problem: Name the outcome recorded for CN1c2ccccc2-c2nc3ccccc3n2C1c1ccncc1 (centres undefined) in the assay.
Result: label 0

Problem: Name the outcome recorded for O=C(CSc1nnc(-c2cccs2)n1-c1ccccc1)c1ccc2c(c1)OCCO2 in the assay.
Result: label 0

Problem: Name the outcome recorded for O=C(NCC(c1cccs1)N1CCOCC1)c1ccccc1NS(=O)(=O)c1cc([N+](=O)[O-])ccc1Cl (centres undefined) in the assay.
Result: label 0

Problem: Name the outcome recorded for COc1ccccc1NC(=O)c1nn(-c2cccc(C(F)(F)F)c2)ccc1=O in the assay.
Result: label 1

Problem: Name the outcome recorded for COc1ccc(CCC(=O)Nc2ccc3c(c2)OCO3)cc1 in the assay.
Result: label 0

Problem: Name the outcome recorded for C=CCNC(=O)NC(=O)COC(=O)/C(C#N)=C/c1cc(C)n(CC(C)C)c1C in the assay.
Result: label 0

Problem: Name the outcome recorded for c1ccc(-c2cc3ccccc3cn2)cc1 in the assay.
Result: label 0

Problem: Name the outcome recorded for CCn1cnc2sc(-c3ccccc3)cc2c1=O in the assay.
Result: label 0

Problem: Name the outcome recorded for Cc1ccc(NC(=S)NC(NC(=O)c2ccccc2C)C(Cl)(Cl)Cl)c(C)c1 (centres undefined) in the assay.
Result: label 0
